Data provenance is ChEMBL document CHEMBL5665443.

So I've got a bunch of molecules here, and I need their inhibition values.
STUDY TARGET: Endonuclease III-like protein 1 (Homo sapiens);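 further: enzyme assay tracking NTHL1 cutting and release of a quenched double-stranded DNA oligo substrate, read as fluorescence at 594 nm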
MEASUREMENT PARAMETERS: Compound Concentration 10.0 uM, Hit No
Description: Inhibition of NTHL1 by quantifying inhibition of NTHL1-mediated cleavage and dissociation of quenched duplex DNA oligonucleotides, measured as fluorescence at 594 nm.
One number for each entry, in %.

{"MOLECULE": "N#Cc1cc(F)cc(-c2nc(-c3ccc(F)cn3)no2)c1", "MEASUREMENT UNIT": "%", "MEASUREMENT": -9.34}

Go through the items and report each one's inhibition.
1. Clc1ccc(C2CC3CCC2N3)cn1 (centres undefined)
2. COc1ccc(CC[C@@H](OC(=O)[C@H]2CCCCN2C(=O)[C@@H](c2cc(OC)c(OC)c(OC)c2)C2CCCCC2)c2cccc(OCCN3CCOCC3)c2)cc1OC
3. CCCCC[C@H](O)/C=C/[C@H]1CCC(=O)[C@@H]1CCCCCCC(=O)O
4. Cn1cc(-c2ccc3occ(-c4cccc(-c5ccncc5)c4)c3n2)cn1
5. Cc1nc(C2CCN(C(=O)c3ccc(OC(F)(F)F)cc3N)CC2)c2ncc(N3CCN(C)CC3)cc2n1
6. CCCCCN1C(=O)C2(COc3cc4c(cc32)OCO4)c2ccccc21 (centres undefined)
7. CC1=C2C[C@H]3[C@@H](CC=C4C[C@@H](O)CC[C@@]43C)[C@@H]2CC[C@]12O[C@@H]1C[C@H](C)CN[C@H]1[C@H]2C

Result:
1. 7.17
2. 0.685
3. 1.19
4. -8.98
5. -0.379
6. 18.7
7. -6.14

Task: Fill in: inhibition of CC(=O)Nc1cccc2c1c(Sc1ccc(Cl)cc1)c(C)n2CC(=O)O is ___
Result: 6.32
